Data provenance is the RNAGym collection of RNA variant scans (doi:10.7554/elife.80360).

B1: Hairpin Ribozyme (parent)
chain: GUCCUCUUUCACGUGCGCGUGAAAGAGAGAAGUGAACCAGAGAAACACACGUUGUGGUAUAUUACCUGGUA

Variants of: B1
Assay: self-cleavage, relative activity (ratio to wild type); higher = more cleavage; co-transcriptional

[
  {
    "ordered_residues": "GUCCUCUUUCACGUGCGCGUGAAAGAGAGCAGUGAACCAGAGAAACACACGCUGUGGUAUAUUACCUGGUA [A30C U52C]",
    "self-cleavage": 0.133
  },
  {
    "ordered_residues": "GUCCUCUUUCCCGUGCGCGUGAAAGAGAGAUGUGAACCAGAGAAACACACGUUGUGGUAUAUUACCUGGUA [A11C A31U]",
    "self-cleavage": 0.18
  },
  {
    "ordered_residues": "GUCCCCUUUCACGUGCGCGUGAAAGAGAGAAGUGAACCAGAGAAACACACGUUGUGGUAUGUUACCUGGUA [U5C A61G]",
    "self-cleavage": 0.176
  },
  {
    "ordered_residues": "GUCCUCUUUCACGUGCGCGUGAAAGAGACAAGUGAACCAGAGAAACACACGUGGUGGUAUAUUACCUGGUA [G29C U53G]",
    "self-cleavage": 0.0421
  },
  {
    "ordered_residues": "GUCCUCUUUCACGUGCGCGUGAAAGAGAGAAGUGAACCAGAGAAACACACGUUGUGGUAUAUUCCCUGGUA [A64C]",
    "self-cleavage": 0.174
  },
  {
    "ordered_residues": "GUCCUCUUUCACGUGCGCGUGAAAUAGAGAAGUGAACCAGAAAAACACACGUUGUGGUAUAUUACCUGGUA [G25U G42A]",
    "self-cleavage": 0.144
  },
  {
    "ordered_residues": "GUCCUCUUUCACGUGCGCGUGAAAGUGAGAAGUGAACCAGAGAAACACACGUUGUGGUAUAAUACCUGGUA [A26U U62A]",
    "self-cleavage": 0.214
  },
  {
    "ordered_residues": "GUCCUCUUUCACGUGCGCGUGAAAGAGAGAAGUGAACCAGAGAAACAAGCGUUGUGGUAUAUUACCUGGUA [C48A A49G]",
    "self-cleavage": 0.215
  },
  {
    "ordered_residues": "GUCCUCUUCCACGUGCGCGUGAAGGAGAGAAGUGAACCAGAGAAACACACGUUGUGGUAUAUUACCUGGUA [U9C A24G]",
    "self-cleavage": 0.844
  },
  {
    "ordered_residues": "GUCCUCUUUCACGUGCGCGUGAUAGAGAGAAGUGAACCAGAGAAAGACACGUUGUGGUAUAUUACCUGGUA [A23U C46G]",
    "self-cleavage": 0.0441
  },
  {
    "ordered_residues": "GUCCUCUUUCACGUGCGCGUGAAAGAGAGAAGUCAACCAGAGAAACACACGUUGUGGUAUAUAACCUGGUA [G34C U63A]",
    "self-cleavage": 0.293
  }
]
